# Study System: DLG2_2, Q15700
# Sequence (Q15700 189-283): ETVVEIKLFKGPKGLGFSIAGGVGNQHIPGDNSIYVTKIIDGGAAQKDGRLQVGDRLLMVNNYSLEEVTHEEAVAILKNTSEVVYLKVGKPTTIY
# Assay Notes: holdup assay
# Set-up: key: below the threshold = too weak to quantify, mostly under pKd 3.1 to 4
# Conditions Used: plain residues with an end cap or a label only (N-terminal biotin on a linker: ahx)
Metric Name: pKd
Give only the figure.

Kindly note the recorded pKd for QDEKVKESYV [ABCA1, O95477] , which is 4.17

HTHSYIETHV [CNKSR2, Q8WXI2] has a reported pKd of 4.42

What the record says about TQKFRASTAL [FRMPD1, Q5SYB0] : pKd is 4.17
